Molecular target: T1, ZIKV E DIII protein (residues 301-403) (Zika virus (strain GZ01))
T1 chain: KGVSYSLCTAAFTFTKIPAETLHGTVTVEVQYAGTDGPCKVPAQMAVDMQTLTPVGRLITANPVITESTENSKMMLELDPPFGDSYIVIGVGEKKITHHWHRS
Experiment: ELISA
Answer each item with its documented EC50.

I am curious: what EC50 value has been reported for 2H-2 (antibody, V domains shown) VH: QVQLVQSGAEVKKPGSSVKVSCKASGGTFSSYAISWVRQATGQGLEWMGGIIPIFGTANYAQKFQGRVTITADESTSTAYMELSSLRSEDTAVYYCARVSSGSYYGSYYYYYYGMDVWGQGTTVTVSS VL: SYELTQPPSASGTPGQRVTISCSGSSSNIGNNYVHWYQQLPGSAPKLLIYRNNQRPSGVPDRFSGSKSGTSGSLAISGLRSEDEADYYCASWDDSLSGHWVFGGGTKVTVL ?
> 0.5 µg/mL

// query: 2H-14 (antibody, V domains shown) VH: QVHAVQSGAEVKKPGASVKVSCKASGYTFTSYGINWVRQATGQGLEWMGWMNPNSGNTGYAQKFQGRVTMTRNTSISTAYMELSSLRSEDTAVYYCARVSSGSYYGSYYYYYYGMDVWGQGTTVTVSS VL: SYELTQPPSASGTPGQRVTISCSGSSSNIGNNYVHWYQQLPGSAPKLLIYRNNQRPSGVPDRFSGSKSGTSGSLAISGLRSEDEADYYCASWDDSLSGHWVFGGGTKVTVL
0.215 µg/mL

// query: 2L-2 (antibody, V domains shown) VH: EVQLVQSGAEVKKPGASVKVSCKASGYTFTSGHTFPSYDINWVRQATGQGLEWMGWMNPNRGNTGYAQKFQGRVTMTRNTSINTAYMELSSLRSEDTAVYYCARVRSGTNYGSYYYYYYGMDVWGQGTTVTVSS VL: QSVLTHRPSASGHPGQRVTISCSGSSSNIGNNYVYWYQQLPGTAPKLLIYRNNQRPSGVPDRFSGSKSGTSASLAISGLRSEDEADYYCAAWDDSLSGHWVFGGGTKLTVL
0.267 µg/mL
